Reference source for all entries: patent US5288720A

Here, each record is paired with measured % Inhibition of AII vasopressor response data.
System: ANGIOTENSIN II VASOPRESSOR RESPONSE
test-summary: AII Challenge: blockade of angiotensin II vasopressor response in conscious SHR
Format: in vivo, rat (Conscious Male Okamoto-Aoki SHR)
condition: SHR n=2; 3 mg/kg p.o.; AII 0.1 mcg/kg IV; 180 min post dose
# number only, unit % dropped from output

Field: example entries. Status: answers known.
CCCCc1nc2ccc(C(OC)C3CCCN(C)C3=O)cc2c(=O)n1Cc1ccc(-c2ccccc2-c2nn[nH]n2)cc1 (single isomer, unassigned; isomer 1) [Example 42] ... 0
CCCCc1nc2ccc(C(O)C3CCN(C)C3=O)cc2c(=O)n1Cc1ccc(-c2ccccc2-c2nn[nH]n2)cc1 (single isomer, unassigned; isomer 1) [Example 32] ... 13

Let us examine a further case.
Read the entry CCCCc1nc2ccc(C(O)C3CCN(C)C3=O)cc2c(=O)n1Cc1ccc(-c2ccccc2-c2nn[nH]n2)cc1 (single isomer, unassigned; isomer 2) [Example 33] and write its reported % Inhibition of AII vasopressor response.
21

----------
Here, each record is paired with measured Average Change (systolic blood pressure response to AII) data.
Test system: ANGIOTENSIN II VASOPRESSOR RESPONSE
test-summary: AII Challenge: blockade of angiotensin II vasopressor response in conscious SHR
Assay type: in vivo, rat (Conscious Male Okamoto-Aoki SHR)
condition: SHR n=2; 3 mg/kg p.o.; AII 0.1 mcg/kg IV; 60 min post dose
Procedure: By administering a compound of this invention to a rat, and then challenging with angiotensin II, a blockage of the vasopressor response is realized. Conscious Male Okamoto-Aoki SHR, 16-20 weeks old, weighing approximately 330 g are purchased from Charles River Labs (Wilmington, Mass.). […] The cannula is attached to a Statham P23Db pressure transducer, and pulsatile blood pressure is recorded to 10-15 minutes with a Gould Brush recorder. […]
# number only, unit mmHg dropped from output

CCCCc1nc2ccc(C(O)C3CCN(C)C3=O)cc2c(=O)n1Cc1ccc(-c2ccccc2-c2nn[nH]n2)cc1 (single isomer, unassigned; isomer 2) [Example 33] ... 25
CCCCc1nc2ccc(C(OC)C3CCCO3)cc2c(=O)n1Cc1ccc(-c2ccccc2-c2nn[nH]n2)cc1 (single isomer, unassigned) [Example 24] ... 32.5
CCCCc1nc2ccc(C(OC)C3CCCN(C)C3=O)cc2c(=O)n1Cc1ccc(-c2ccccc2-c2nn[nH]n2)cc1 (single isomer, unassigned; isomer 2) [Example 43] ... 32.5
CCCCc1nc2ccc(C(OC)C3CCCN(C)C3=O)cc2c(=O)n1Cc1ccc(-c2ccccc2-c2nn[nH]n2)cc1 (single isomer, unassigned; isomer 1) [Example 42] ... 35

Let us examine a further case.
Read the entry CCCCc1nc2ccc(C(OC)C3CCCO3)cc2c(=O)n1Cc1ccc(-c2ccccc2-c2nn[nH]n2)cc1 (single isomer, unassigned; isomer 1) [Example 23] and write its reported Average Change (systolic blood pressure response to AII).
47.5

----------
Tested on: ANGIOTENSIN II VASOPRESSOR RESPONSE
test-summary: AII Challenge: blockade of angiotensin II vasopressor response in conscious SHR
Assay type: in vivo, rat (Conscious Male Okamoto-Aoki SHR)
condition: SHR n=2; 3 mg/kg p.o.; AII 0.1 mcg/kg IV; 90 min post dose
Here, each record is paired with measured % Inhibition of AII vasopressor response data.
# number only, unit % dropped from output

CCCCc1nc2ccc(C(O)C3CCN(C)C3=O)cc2c(=O)n1Cc1ccc(-c2ccccc2-c2nn[nH]n2)cc1 (single isomer, unassigned; isomer 1) [Example 32] ... 40
CCCCc1nc2ccc(C(O)C3CCN(C)C3=O)cc2c(=O)n1Cc1ccc(-c2ccccc2-c2nn[nH]n2)cc1 (single isomer, unassigned; isomer 2) [Example 33] ... 37
CCCCc1nc2ccc(C(OC)C3CCCO3)cc2c(=O)n1Cc1ccc(-c2ccccc2-c2nn[nH]n2)cc1 (single isomer, unassigned) [Example 24] ... 33

Read the entry CCCCc1nc2ccc(C(OC)C3CCCN(C)C3=O)cc2c(=O)n1Cc1ccc(-c2ccccc2-c2nn[nH]n2)cc1 (single isomer, unassigned; isomer 1) [Example 42] and write its reported % Inhibition of AII vasopressor response.
13

Read the entry CCCCc1nc2ccc(C(O)C3CCCN(C)C3=O)cc2c(=O)n1Cc1ccc(-c2ccccc2-c2nn[nH]n2)cc1 (single isomer, unassigned; isomer 1) [Example 37] and write its reported % Inhibition of AII vasopressor response.
11

----------
Tested on: ANGIOTENSIN II VASOPRESSOR RESPONSE
test-summary: AII Challenge: blockade of angiotensin II vasopressor response in conscious SHR
Assay type: in vivo, rat (Conscious Male Okamoto-Aoki SHR)
condition: SHR n=2; 3 mg/kg i.v.; AII 0.1 mcg/kg IV; 30 min post dose
Protocol: By administering a compound of this invention to a rat, and then challenging with angiotensin II, a blockage of the vasopressor response is realized. Conscious Male Okamoto-Aoki SHR, 16-20 weeks old, weighing approximately 330 g are purchased from Charles River Labs (Wilmington, Mass.). […] The cannula is attached to a Statham P23Db pressure transducer, and pulsatile blood pressure is recorded to 10-15 minutes with a Gould Brush recorder. […]
measured-property: Average Change (systolic blood pressure response to AII) (mmHg)
# number only, unit mmHg dropped from output

CCCCc1nc2ccc(C(O)C3CCCS3(=O)=O)cc2c(=O)n1Cc1ccc(-c2ccccc2-c2nn[nH]n2)cc1 (single isomer, unassigned; isomer 2) ... 20
CCCCc1nc2ccc(C(OC)C3CCCO3)cc2c(=O)n1Cc1ccc(-c2ccccc2-c2nn[nH]n2)cc1 (single isomer, unassigned) [Example 24] ... 0
CCCCc1nc2ccc(C(OC)C3CCCO3)cc2c(=O)n1Cc1ccc(-c2ccccc2-c2nn[nH]n2)cc1 (single isomer, unassigned; isomer 1) [Example 23] ... 1.5

Read the entry CCCCc1nc2ccc(C(O)C3CCCN(C)C3=O)cc2c(=O)n1Cc1ccc(-c2ccccc2-c2nn[nH]n2)cc1 (single isomer, unassigned; isomer 1) and write its reported Average Change (systolic blood pressure response to AII).
2.5

----------
System: ANGIOTENSIN II VASOPRESSOR RESPONSE
test-summary: AII Challenge: blockade of angiotensin II vasopressor response in conscious SHR
Type: in vivo, rat (Conscious Male Okamoto-Aoki SHR)
condition: SHR n=2; 3 mg/kg p.o.; AII 0.05 mcg/kg IV; 30 min post dose
Kind request: treat 20 mmHg as inclusive, so Average Change (systolic blood pressure response to AII) at 20 mmHg or higher is yes, anything lower is no.

Example cases with answers are listed next.
CCCCc1nc2ccc(C(O)C3CCN(C)C3=O)cc2c(=O)n1Cc1ccc(-c2ccccc2-c2nn[nH]n2)cc1 (single isomer, unassigned; isomer 1) [Example 32] ... yes
CCCCc1nc2ccc(C(OC)C3CCCN(C)C3=O)cc2c(=O)n1Cc1ccc(-c2ccccc2-c2nn[nH]n2)cc1 (single isomer, unassigned; isomer 2) [Example 43] ... yes
CCCCc1nc2ccc(C(O)C3CCN(C)C3=O)cc2c(=O)n1Cc1ccc(-c2ccccc2-c2nn[nH]n2)cc1 (single isomer, unassigned; isomer 2) [Example 33] ... no
CCCCc1nc2ccc(C(OC)C3CCCN(C)C3=O)cc2c(=O)n1Cc1ccc(-c2ccccc2-c2nn[nH]n2)cc1 (single isomer, unassigned; isomer 1) [Example 42] ... yes
CCCCc1nc2ccc(C(O)C3CCCN(C)C3=O)cc2c(=O)n1Cc1ccc(-c2ccccc2-c2nn[nH]n2)cc1 (single isomer, unassigned; isomer 1) [Example 37] ... no

Evaluate CCCCc1nc2ccc(C(OC)C3CCCO3)cc2c(=O)n1Cc1ccc(-c2ccccc2-c2nn[nH]n2)cc1 (single isomer, unassigned) [Example 24] : Average Change (systolic blood pressure response to AII) at minimum 20 mmHg?
no

Evaluate CCCCc1nc2ccc(C(O)C3CCCN(C)C3=O)cc2c(=O)n1Cc1ccc(-c2ccccc2-c2nn[nH]n2)cc1 (single isomer, unassigned; isomer 2) [Example 38] : Average Change (systolic blood pressure response to AII) at minimum 20 mmHg?
no

----------
Here, each record is paired with measured % Inhibition of AII vasopressor response data.
Test system: ANGIOTENSIN II VASOPRESSOR RESPONSE
test-summary: AII Challenge: blockade of angiotensin II vasopressor response in conscious SHR
Assay type: in vivo, rat (Conscious Male Okamoto-Aoki SHR)
condition: SHR n=2; 3 mg/kg i.v.; AII 0.05 mcg/kg IV; 90 min post dose
# number only, unit % dropped from output

Field: example entries. Status: answers known.
CCCCc1nc2ccc(C(O)C3CCCS3(=O)=O)cc2c(=O)n1Cc1ccc(-c2ccccc2-c2nn[nH]n2)cc1 (single isomer, unassigned; isomer 2) [Example 16] ... 61
CCCCc1nc2ccc(C(O)C3CCN(C)C3=O)cc2c(=O)n1Cc1ccc(-c2ccccc2-c2nn[nH]n2)cc1 (single isomer, unassigned; isomer 2) [Example 33] ... 100

Answer with % Inhibition of AII vasopressor response of CCCCc1nc2ccc(C(OC)C3CCCO3)cc2c(=O)n1Cc1ccc(-c2ccccc2-c2nn[nH]n2)cc1 (single isomer, unassigned) [Example 24] measured for ANGIOTENSIN II VASOPRESSOR RESPONSE.
93

Answer with % Inhibition of AII vasopressor response of CCCCc1nc2ccc(C(C)(O)C3CCN(C)C3=O)cc2c(=O)n1Cc1ccc(-c2ccccc2-c2nn[nH]n2)cc1 (single isomer, unassigned; isomer 1) [Example 47] measured for ANGIOTENSIN II VASOPRESSOR RESPONSE.
63

Answer with % Inhibition of AII vasopressor response of CCCCc1nc2ccc(C(O)C3CCCN(C)C3=O)cc2c(=O)n1Cc1ccc(-c2ccccc2-c2nn[nH]n2)cc1 (single isomer, unassigned; isomer 1) measured for ANGIOTENSIN II VASOPRESSOR RESPONSE.
100
